Assay: Mouse liver microsomal stability
Type: in vitro ADME
Details: liver microsomes, t1/2 (min) + NADPH, 37 °C, + NADPH
reported_property: half-life

Past entries and their recorded results:
compound	reported_property	observed
C[C@H](Oc1cccc(Cl)c1Cl)C(=O)Nc1ccc2nc(-c3ccncc3)oc2c1 [40a]	half-life	≤ 12 min
C[C@H](Oc1cccc(Cl)c1Cl)C(=O)Nc1ccc2oc(-c3cncs3)nc2c1 [compound 62]	half-life	≤ 12 min

Okay, now this compound:
Prompt: Fill in the blank: the reported half-life of C[C@H](Oc1cccc(Cl)c1Cl)C(=O)Nc1ccc2oc(-c3ccncc3)nc2c1 [compound 55] is ____.
Completion: ≤ 12 min

====

Molecular target: CpIMPDH (Cryptosporidium parvum, UniProt Q8T6T2)
Experiment: biochemical
Type: biochemical
Conditions: Kis (nM), Substrate IMP
reported_property: Ki (nM)
Expressed in nM, but write only the number.

compound	reported_property	observed
C[C@H](Oc1cccc2ccccc12)C(=O)Nc1ccc2oc(-c3cncs3)nc2c1	Ki	1.6
C[C@H](Oc1cccc(Cl)c1Cl)C(=O)Nc1cc(Cl)c2oc(-c3ccncc3)nc2c1	Ki	210
C[C@@H](C(=O)Nc1ccc2oc(-c3ccncc3)nc2c1)c1ccccc1	Ki	100

Now consider the entry below.
Prompt: Entry under review: CC(Oc1ccc(Cl)cc1Cl)C(=O)Nc1ccc2oc(-c3ccncc3)nc2c1 (stereo not shown) . Reported Ki?
Completion: 58

====

Molecular target: CpIMPDH (Cryptosporidium parvum, UniProt Q8T6T2)
Sequence (Q8T6T2 1-400): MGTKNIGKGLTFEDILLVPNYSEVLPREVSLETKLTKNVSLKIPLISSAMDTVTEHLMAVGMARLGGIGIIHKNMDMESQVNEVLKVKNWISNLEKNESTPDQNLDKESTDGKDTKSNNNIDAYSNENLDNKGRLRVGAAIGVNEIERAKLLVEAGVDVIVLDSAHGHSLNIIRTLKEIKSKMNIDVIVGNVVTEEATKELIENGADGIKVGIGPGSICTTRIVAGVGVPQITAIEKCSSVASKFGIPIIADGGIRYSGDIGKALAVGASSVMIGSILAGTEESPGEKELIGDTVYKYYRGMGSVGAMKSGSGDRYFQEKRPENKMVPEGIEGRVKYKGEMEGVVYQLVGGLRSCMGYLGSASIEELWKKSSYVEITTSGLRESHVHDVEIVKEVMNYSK
Test: biochemical
Type: biochemical
reported_property: pKi
A value of pKi is the negative decimal logarithm of a concentration given in moles per litre.

Prompt: Sample C[C@H](Oc1cccc(Cl)c1Cl)C(=O)Nc1cc(Cl)c2oc(-c3ccncc3)nc2c1 [compound 68] — what was its pKi?
Completion: 6.82

====

Test system: HEK293 cells
Settings: human
reported_property: LD50

molecule	observed
C[C@H](Oc1cccc(Cl)c1Cl)C(=O)Nc1ccc2nc(-c3ccncc3)oc2c1 [40a]	> 50 µM
C[C@H](Oc1cccc([N+](=O)[O-])c1Cl)C(=O)Nc1ccc2oc(-c3ccncc3)nc2c1	> 50 µM
CC(Oc1ccccc1Cl)C(=O)Nc1ccc2oc(-c3ccncc3)nc2c1 (stereo not drawn)	~ 12.5 μM
CC(Oc1cccc(Cl)c1Cl)C(=O)Nc1ccc2oc(-c3ccncc3)nc2c1 (stereo not drawn)	> 50 µM
C[C@H](Nc1cccc(Cl)c1Cl)C(=O)Nc1ccc2oc(-c3ccncc3)nc2c1 [15a]	> 50 µM

Moving on to another molecule below.
Prompt: Missing value: LD50, HEK293 cells, entry COc1ccc(OC(C)C(=O)Nc2ccc3oc(-c4ccncc4)nc3c2)cc1 (stereo not drawn) . Fill in?
Completion: > 50 µM
